biological target: recombinant human latent myostatin (human, UniProt O14793 24-375, biotinylated (in the Octet pH assay only)); assay: cell-based or functional assay
Exam item: assign y to entries whose IC50 (nM) Latent + mTLL2 is below 0.2 nM and n to entries at or above 0.2 nM. Note that a value of exactly 0.2 nM receives n.

- Ab108 (antibody, human IgG4 S228P, kappa, V domains shown) VH: EVQLVESGGGLVQPGGSLRLSCAASGSAFSSYGMSWVRQAPGKGLELVASINSNGGSTYYPDSVKGRFTISRDNAKNSLYLQMNSLRAEDTAVYYCARDLLVGFLQWSHYYGMDVWGQGTTVTVSS VL: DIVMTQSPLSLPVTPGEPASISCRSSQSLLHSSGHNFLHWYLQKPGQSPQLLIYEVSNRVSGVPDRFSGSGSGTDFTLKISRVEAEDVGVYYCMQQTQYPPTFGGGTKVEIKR: n
- Ab114 (antibody, human IgG4 S228P, kappa, V domains shown) VH: QVQLVQSGAEVKKPGASVKVSCKVSGGTFRSYTIHWVRQAPGKGLEWMGGMNPSSGHTIYAQKFQGRVTMTEDTSTDTAYMELSSLKSEDTAVYYCARGLDYGEGYYYYGMDVWGQGTTVTVSS VL: DIQMTQSPSSVSASVGDRVTITCRASQGISESLAWYQQKPGKAPKLLIYSASSLESGVPSRFSGSGSGTDFTLTISSLQPEDFANYYCQQGYSSPPYTFGGGTKVEIKR: n
- Ab127 (antibody, human IgG4 S228P, kappa, V domains shown) VH: EVQLVESGGGLVQPGGSLRLSCTASGFTFGSYPMDWVRQAPGKGLEWVSYISGRGDVTYYADSVKGRFTISRDNAKNTLYLQMNSLRAEDTAVYYCAKVQSPSELLWFGELLPVDYWGQGTLVTVSS VL: DIQMTQSPSSLSASVGDRVTITCQASQVIKTWLNWYQQKPGKAPKLLIYDASNLQRGVPSRFSGSGSGTDFTFTISSLQPEDIATYYCQQSASTPITFGGGTKVEIKR: y
- Ab106 (antibody, human IgG4 S228P, kappa, V domains shown) VH: EVQLVESGGGLVQPGGSLRLSCAASGSAFSSYGMSWVRQAPGKGLELVASINSNGGSTYYPDSVKGRFTISRDNAKNSLYLQMNSLRAEDTAVYYCARDLLVRFLEWAGYYGMDVWGQGTTVTVSS VL: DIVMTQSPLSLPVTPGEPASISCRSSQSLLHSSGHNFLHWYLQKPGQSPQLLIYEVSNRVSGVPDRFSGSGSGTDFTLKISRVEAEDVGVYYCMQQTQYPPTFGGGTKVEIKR: y
- Ab101 (antibody, human IgG4 S228P, kappa, V domains shown) VH: EVQLVESGGGLVQPGGSLRLSCAASGSAFSSYGMSWVRQAPGKGLELVASINSNGGSTYYPDSVKGRFTISRDNAKNSLYLQMNSLRAEDTAVYYCARDLLVRFLEWSHYYGMDVWGQGTTVTVSS VL: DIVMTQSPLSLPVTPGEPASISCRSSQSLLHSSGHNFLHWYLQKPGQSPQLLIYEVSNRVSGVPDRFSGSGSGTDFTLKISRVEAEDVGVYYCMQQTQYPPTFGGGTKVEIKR: y
- Ab112 (antibody, human IgG4 S228P, kappa, V domains shown) VH: QVQLVQSGAEVKKPGASVKVSCKVSGGTFGIYAIHWVRQAPGKGLEWMGGTIPVFGTAIYAQKFQGRVTMTEDTSTDTAYMELSSLKSEDTAVYYCASLTGIAAAGTHPARGGMDVWGQGTTVTVSS VL: DIQMTQSPSSVSASVGDRVTITCRASPSISSYLAWYQQKPGKAPKLLIYAASRLQSGVPSRFSGSGSGTDFTLTISSLQPEDFANYYCQEYLSFPLTFGGGTKVEIKR: n
- Ab105 (antibody, human IgG4 S228P, kappa, V domains shown) VH: EVQLVESGGGLVQPGGSLRLSCAASGSAFSSYGMSWVRQAPGKGLELVASIGGTGATYYPDSVKGRFTISRDNAKNSLYLQMNSLRAEDTAVYYCARDLLVRFLEWGHYYGMDVWGQGTTVTVSS VL: DIVMTQSPLSLPVTPGEPASISCRSSQSLLHSSGYNFLHWYLQKPGQSPQLLIYAASSRAPGIPDRFSGSGSGTDFTLKISRVEAEDVGVYYCMHGGQGPTFGGGTKVEIKR: n
- Ab133 (antibody, human IgG4 S228P, kappa, V domains shown, human IgG4 in the EM experiment; also called Ab133 Human IgG4) VH: EVQLVESGGGLVQPGGSLRLSCAASGFTFSSYGMSWVRQAPGKGLELVASFTGSGGAYYPDSVKGRFTISRDNAKNSLYLQMNSLRAEDTAVYYCARDLLIRFLEWSHYYGMDVWGQGTTVTVSS VL: DIVMTQSPLSLPVTPGEPASISCRSSQSLLHSSGHNFLHWYLQKPGQSPQLLIYEVSNRVSGVPDRFSGSGSGTDFTLKISRVEAEDVGVYYCQQQTQYPGTFGGGTKVEIKR: y
- Ab135 (antibody, human IgG4 S228P, kappa, V domains shown) VH: EVQLVESGGGLVQPGGSLRLSCAASGSAFSSYGMSWVRQAPGKGLELVASINSNGGSTYYPDSVKGRFTISRDNAKNSLYLQMNSLRAEDTAVYYCARDLLVTFLRWSHYYGMDVWGQGTTVTVSS VL: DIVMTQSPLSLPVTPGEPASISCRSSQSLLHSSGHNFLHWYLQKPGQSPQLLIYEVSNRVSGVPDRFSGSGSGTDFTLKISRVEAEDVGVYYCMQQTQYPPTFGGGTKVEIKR: y
- Ab103 (antibody, human IgG4 S228P, kappa, V domains shown) VH: EVQLVESGGGLVQPGGSLRLSCAASGYTFSSYGMSWVRQAPGKGLELVASITGDAGRTYYPDSVKGRFTISRDNAKNSLYLQMNSLRAEDTAVYYCARDTLVRFLEWSHYYGMDVWGQGTTVTVSS VL: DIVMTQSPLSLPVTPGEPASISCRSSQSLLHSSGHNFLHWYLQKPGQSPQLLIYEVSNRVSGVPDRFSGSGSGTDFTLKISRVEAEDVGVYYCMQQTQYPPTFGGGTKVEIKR: n
